Biological target: BCRP (Homo sapiens, UniProt Q9UNQ0)
Sequence (Q9UNQ0 1-655): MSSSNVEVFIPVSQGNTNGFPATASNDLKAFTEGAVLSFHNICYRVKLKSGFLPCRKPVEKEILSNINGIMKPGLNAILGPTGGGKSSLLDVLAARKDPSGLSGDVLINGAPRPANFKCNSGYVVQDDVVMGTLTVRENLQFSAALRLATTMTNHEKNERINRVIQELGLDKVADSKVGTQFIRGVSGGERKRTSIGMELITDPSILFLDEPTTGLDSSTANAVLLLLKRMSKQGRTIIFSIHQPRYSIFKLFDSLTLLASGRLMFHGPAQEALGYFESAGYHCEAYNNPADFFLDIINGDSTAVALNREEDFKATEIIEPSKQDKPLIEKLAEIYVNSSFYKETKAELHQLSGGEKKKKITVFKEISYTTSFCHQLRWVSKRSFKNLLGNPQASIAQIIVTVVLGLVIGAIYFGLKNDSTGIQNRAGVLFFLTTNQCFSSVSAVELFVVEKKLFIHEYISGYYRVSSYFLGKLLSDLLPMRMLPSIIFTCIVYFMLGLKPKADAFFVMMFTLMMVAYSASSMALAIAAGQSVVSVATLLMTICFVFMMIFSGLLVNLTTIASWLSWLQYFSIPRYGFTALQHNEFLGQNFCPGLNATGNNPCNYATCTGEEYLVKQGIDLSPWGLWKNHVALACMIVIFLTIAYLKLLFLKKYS
Assay: biochemical
REPORTED ENDPOINT: IC50

Exercise: BCRP (Homo sapiens, UniProt Q9UNQ0) / IC50 / CCC(CC)COC(=O)[C@H](C)N[P@](=O)(OC[C@H]1O[C@@](C#N)(c2ccc3c(N)ncnn23)[C@H](O)[C@@H]1O)Oc1ccccc1 : value?
Solution: 25 µM

Exercise: BCRP (Homo sapiens, UniProt Q9UNQ0) / IC50 / O=C1CCC(N2C(=O)c3ccccc3C2=O)C(=O)N1 (centres unmarked) [Thalidomide] : value?
Solution: > 100 µM

Exercise: BCRP (Homo sapiens, UniProt Q9UNQ0) / IC50 / NC(=O)c1nc(F)c[nH]c1=O : value?
Solution: > 100 µM

Exercise: BCRP (Homo sapiens, UniProt Q9UNQ0) / IC50 / NC(=O)c1ncn([C@@H]2O[C@H](CO)[C@@H](O)[C@H]2O)n1 : value?
Solution: > 100 µM

Exercise: BCRP (Homo sapiens, UniProt Q9UNQ0) / IC50 / C[C@@H]1CCN(C(=O)CC#N)C[C@@H]1N(C)c1ncnc2[nH]ccc12 : value?
Solution: > 100 µM

Exercise: BCRP (Homo sapiens, UniProt Q9UNQ0) / IC50 / CCOC(=O)c1c(CSc2ccccc2)n(C)c2cc(Br)c(O)c(CN(C)C)c12 : value?
Solution: > 100 µM

Exercise: BCRP (Homo sapiens, UniProt Q9UNQ0) / IC50 / CN(C)C(=O)COC(=O)Cc1ccc(OC(=O)c2ccc(NC(=N)N)cc2)cc1 : value?
Solution: > 100 µM

Exercise: BCRP (Homo sapiens, UniProt Q9UNQ0) / IC50 / COc1cc2c(c(OC)c1OC)-c1ccc(OC)c(=O)cc1[C@@H](NC(C)=O)CC2 : value?
Solution: > 100 µM

* * *

REPORTED ENDPOINT: log10 of IC50 (log10 of the value in nM)
Values are log10 of IC50 in nM.

Exercise: human MATE1 (Homo sapiens) / log10 of IC50 / CCN(CCO)CCCC(C)Nc1ccnc2cc(Cl)ccc12 (stereo not shown) [Hydroxychloroquine] : value?
Solution: 3.28

Exercise: human MATE1 (Homo sapiens) / log10 of IC50 / CCCc1nn(C)c2c(=O)[nH]c(-c3cc(S(=O)(=O)N4CCN(C)CC4)ccc3OCC)nc12 : value?
Solution: 3.38

Exercise: human MATE1 (Homo sapiens) / log10 of IC50 / Cc1cccc(C)c1OCC(=O)N[C@@H](Cc1ccccc1)[C@@H](O)C[C@H](Cc1ccccc1)NC(=O)[C@H](C(C)C)N1CCCNC1=O : value?
Solution: 4.35

Exercise: human MATE1 (Homo sapiens) / log10 of IC50 / Cc1oncc1C(=O)Nc1ccc(C(F)(F)F)cc1 [Leflunomide] : value?
Solution: 3.98

Exercise: human MATE1 (Homo sapiens) / log10 of IC50 / CC(C)CN(C[C@@H](O)[C@H](Cc1ccccc1)NC(=O)O[C@H]1CO[C@H]2OCC[C@H]21)S(=O)(=O)c1ccc(N)cc1 : value?
Solution: 4.64

Exercise: human MATE1 (Homo sapiens) / log10 of IC50 / COc1ccc2cc1Oc1ccc(cc1)C[C@H]1c3cc(c(OC)cc3CCN1C)Oc1c(OC)c(OC)cc3c1[C@H](C2)N(C)CC3 : value?
Solution: 3.08

Exercise: human MATE1 (Homo sapiens) / log10 of IC50 / CCC(CC)COC(=O)[C@H](C)N[P@](=O)(OC[C@H]1O[C@@](C#N)(c2ccc3c(N)ncnn23)[C@H](O)[C@@H]1O)Oc1ccccc1 : value?
Solution: 2.60

Exercise: human MATE1 (Homo sapiens) / log10 of IC50 / CCOC(=O)c1c(CSc2ccccc2)n(C)c2cc(Br)c(O)c(CN(C)C)c12 : value?
Solution: 2.85

Exercise: human MATE1 (Homo sapiens) / log10 of IC50 / CCN(CC)CCCC(C)Nc1ccnc2cc(Cl)ccc12 (stereo not shown) : value?
Solution: 2.90

Exercise: human MATE1 (Homo sapiens) / log10 of IC50 / C[C@@H]1CCN(C(=O)CC#N)C[C@@H]1N(C)c1ncnc2[nH]ccc12 : value?
Solution: 3.00

Exercise: human MATE1 (Homo sapiens) / log10 of IC50 / CCS(=O)(=O)N1CC(CC#N)(n2cc(-c3ncnc4[nH]ccc34)cn2)C1 : value?
Solution: 4.56

Exercise: human MATE1 (Homo sapiens) / log10 of IC50 / N#CC[C@H](C1CCCC1)n1cc(-c2ncnc3[nH]ccc23)cn1 : value?
Solution: 2.85

* * *

Give measured IC50 for each item. Keep answers brief.

Exercise: human OAT1 (Homo sapiens) / IC50 / CCS(=O)(=O)N1CC(CC#N)(n2cc(-c3ncnc4[nH]ccc34)cn2)C1 [Baricitinib] : value?
Solution: > 50 µM

Exercise: human OAT1 (Homo sapiens) / IC50 / Cc1cccc(C)c1OCC(=O)N[C@@H](Cc1ccccc1)[C@@H](O)C[C@H](Cc1ccccc1)NC(=O)[C@H](C(C)C)N1CCCNC1=O [Lopinavir] : value?
Solution: > 100 µM

Exercise: human OAT1 (Homo sapiens) / IC50 / CCOC(=O)C1=C[C@@H](OC(CC)CC)[C@H](NC(C)=O)[C@@H](N)C1 [Oseltamivir] : value?
Solution: 90 µM

Exercise: human OAT1 (Homo sapiens) / IC50 / CC[C@H]1OC(=O)[C@H](C)[C@@H](O[C@H]2C[C@@](C)(OC)[C@@H](O)[C@H](C)O2)[C@H](C)[C@@H](O[C@@H]2O[C@H](C)C[C@H](N(C)C)[C@H]2O)[C@](C)(O)C[C@@H](C)CN(C)[C@H](C)[C@@H](O)[C@]1(C)O [Azithromycin] : value?
Solution: > 50 µM

Exercise: human OAT1 (Homo sapiens) / IC50 / CCC(CC)COC(=O)[C@H](C)N[P@](=O)(OC[C@H]1O[C@@](C#N)(c2ccc3c(N)ncnn23)[C@H](O)[C@@H]1O)Oc1ccccc1 [Remdesivir] : value?
Solution: > 100 µM

Exercise: human OAT1 (Homo sapiens) / IC50 / O=C1CCC(N2C(=O)c3ccccc3C2=O)C(=O)N1 (stereo not shown) [Thalidomide] : value?
Solution: > 100 µM

Exercise: human OAT1 (Homo sapiens) / IC50 / N#CC[C@H](C1CCCC1)n1cc(-c2ncnc3[nH]ccc23)cn1 [Ruxolitinib] : value?
Solution: > 100 µM

* * *

Target: human OAT3 (Homo sapiens, UniProt Q8TCC7)
Sequence (Q8TCC7 whole entry): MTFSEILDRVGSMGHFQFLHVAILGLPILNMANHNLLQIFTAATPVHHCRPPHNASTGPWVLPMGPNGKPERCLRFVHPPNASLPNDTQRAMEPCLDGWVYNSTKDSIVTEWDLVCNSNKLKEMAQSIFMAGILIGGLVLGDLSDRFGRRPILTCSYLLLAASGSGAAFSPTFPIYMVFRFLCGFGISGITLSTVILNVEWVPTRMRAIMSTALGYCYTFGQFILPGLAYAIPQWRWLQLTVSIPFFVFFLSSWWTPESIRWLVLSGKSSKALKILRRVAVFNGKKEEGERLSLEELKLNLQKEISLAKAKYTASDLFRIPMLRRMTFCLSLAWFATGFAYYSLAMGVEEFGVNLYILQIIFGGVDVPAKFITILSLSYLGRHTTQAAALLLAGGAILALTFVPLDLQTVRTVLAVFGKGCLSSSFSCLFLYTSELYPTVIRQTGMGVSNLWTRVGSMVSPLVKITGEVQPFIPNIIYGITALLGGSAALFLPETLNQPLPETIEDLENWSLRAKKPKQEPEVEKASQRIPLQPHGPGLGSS
Conditions: human
Give measured Cu,max/IC50 OAT3 for each item. Keep answers brief.
// keep it numeric: no unit symbol after the value

Exercise: Which Cu,max/IC50 OAT3 reading was recorded for the compound CCOC(=O)c1c(CSc2ccccc2)n(C)c2cc(Br)c(O)c(CN(C)C)c12 [Umifenovir (Arbidol), Umifenovir] ?
Solution: 0.002

Exercise: Which Cu,max/IC50 OAT3 reading was recorded for the compound NC(=O)c1nc(F)c[nH]c1=O [Favipiravir] ?
Solution: 3.21

Exercise: Which Cu,max/IC50 OAT3 reading was recorded for the compound N#CC[C@H](C1CCCC1)n1cc(-c2ncnc3[nH]ccc23)cn1 [Ruxolitinib] ?
Solution: 0.005

Exercise: Which Cu,max/IC50 OAT3 reading was recorded for the compound O=C1CCC(N2C(=O)c3ccccc3C2=O)C(=O)N1 (stereo not drawn) [Thalidomide] ?
Solution: 0.08

Exercise: Which Cu,max/IC50 OAT3 reading was recorded for the compound CCCc1nn(C)c2c(=O)[nH]c(-c3cc(S(=O)(=O)N4CCN(C)CC4)ccc3OCC)nc12 [Sildenafil] ?
Solution: 0.002
